assay: Pharmacokinetic parameters in Sprague-Dawley rats; settings: rat, in vivo
Kindly supply the reported Tmax values for the records listed here.
Numbers only, in h.

{"columns": ["compound", "Tmax, h"],
 "data": [
  ["Cc1ccc(NC(=O)c2ccc(CN3CCN(C)CC3)cc2)cc1Nc1nccc(-c2cccnc2)n1 [imatinib, reference compound]", 4],
  ["Cc1ccc(NC(=O)c2ccc(CN3CCN(C)CC3)cc2)cc1Nc1nccc(-c2cncc(-c3ccn(C)n3)c2)n1", 4],
  ["Cc1ccc(NC(=O)c2ccc(CN3CCN(C)CC3)cc2)cc1Nc1nccc(-c2cncc(-c3oncc3C)c2)n1", 4],
  ["Cc1ccnc(-c2cncc(-c3ccnc(Nc4cc(NC(=O)c5ccc(CN6CCN(C)CC6)cc5)ccc4C)n3)c2)c1", 4],
  ["Cc1ccc(NC(=O)c2ccc(CN3CCN(C)CC3)cc2)cc1Nc1nccc(-c2cncc(-c3nccs3)c2)n1", 5.3]
]}

As a next step, examine the compound that follows.
Query: What value of measured Tmax is listed for Cc1cc(-c2cncc(-c3ccnc(Nc4cc(NC(=O)c5ccc(CN6CCN(C)CC6)cc5)ccc4C)n3)c2)on1 ?
Response: 5.3

====

experiment: Pharmacokinetic parameters in Sprague-Dawley rats; details: rat, in vivo
Rule: Vd below 6 L/kg gives met. Equal to or above 6 L/kg gives not met.

Example results:
{"columns": ["structure-smiles-string", "category"],
 "data": [
  ["Cc1ccc(NC(=O)c2ccc(CN3CCN(C)CC3)cc2)cc1Nc1nccc(-c2cncc(-c3ccn(C)n3)c2)n1", "met"],
  ["Cc1cc(-c2cncc(-c3ccnc(Nc4cc(NC(=O)c5ccc(CN6CCN(C)CC6)cc5)ccc4C)n3)c2)on1", "not met"],
  ["Cc1ccnc(-c2cncc(-c3ccnc(Nc4cc(NC(=O)c5ccc(CN6CCN(C)CC6)cc5)ccc4C)n3)c2)c1", "not met"]
]}

Query: Strictly below 6 L/kg: is that where Vd of Cc1ccc(NC(=O)c2ccc(CN3CCN(C)CC3)cc2)cc1Nc1nccc(-c2cncc(-c3nccs3)c2)n1 sits?
Response: not met

Query: Strictly below 6 L/kg: is that where Vd of Cc1ccc(NC(=O)c2ccc(CN3CCN(C)CC3)cc2)cc1Nc1nccc(-c2cncc(-c3oncc3C)c2)n1 sits?
Response: not met

====

experiment: Pharmacokinetic parameters in Sprague-Dawley rats; set-up: concentration or dose not given beside the values; conditions: rat, in vivo
Rule: AUC(0-t) below 2000 ng·h/mL gives 1 (yes). Equal to or above 2000 ng·h/mL gives 0 (no).

{"columns": ["molecule", "category"],
 "data": [
  ["Cc1ccc(NC(=O)c2ccc(CN3CCN(C)CC3)cc2)cc1Nc1nccc(-c2cncc(-c3ccn(C)n3)c2)n1", "0 (no)"]
]}

Query: Strictly below 2000 ng·h/mL: is that where AUC(0-t) of Cc1ccc(NC(=O)c2ccc(CN3CCN(C)CC3)cc2)cc1Nc1nccc(-c2cncc(-c3nccs3)c2)n1 sits?
Response: 1 (yes)

Query: Strictly below 2000 ng·h/mL: is that where AUC(0-t) of Cc1cc(-c2cncc(-c3ccnc(Nc4cc(NC(=O)c5ccc(CN6CCN(C)CC6)cc5)ccc4C)n3)c2)on1 sits?
Response: 1 (yes)

Query: Strictly below 2000 ng·h/mL: is that where AUC(0-t) of Cc1ccc(NC(=O)c2ccc(CN3CCN(C)CC3)cc2)cc1Nc1nccc(-c2cncc(-c3oncc3C)c2)n1 sits?
Response: 1 (yes)

Query: Strictly below 2000 ng·h/mL: is that where AUC(0-t) of Cc1ccc(NC(=O)c2ccc(CN3CCN(C)CC3)cc2)cc1Nc1nccc(-c2cccnc2)n1 [imatinib, reference compound] sits?
Response: 0 (no)

Query: Strictly below 2000 ng·h/mL: is that where AUC(0-t) of Cc1ccnc(-c2cncc(-c3ccnc(Nc4cc(NC(=O)c5ccc(CN6CCN(C)CC6)cc5)ccc4C)n3)c2)c1 sits?
Response: 0 (no)

====

assay: Serum protein binding; assay type: in vitro ADME; conditions: rat
Kindly supply the reported fraction unbound values for the records listed here.
One number for each entry.

{"columns": ["structure-smiles-string", "test-value"],
 "data": [
  ["Cc1ccc(NC(=O)c2ccc(CN3CCN(C)CC3)cc2)cc1Nc1nccc(-c2cncc(-c3oncc3C)c2)n1", 0.143]
]}

As a next step, examine the compound that follows.
Query: What value of measured fraction unbound is listed for Cc1cc(-c2cncc(-c3ccnc(Nc4cc(NC(=O)c5ccc(CN6CCN(C)CC6)cc5)ccc4C)n3)c2)on1 ?
Response: 0.141

====

// UniProt:P42684 IC50 records
Sequence (P42684 whole entry): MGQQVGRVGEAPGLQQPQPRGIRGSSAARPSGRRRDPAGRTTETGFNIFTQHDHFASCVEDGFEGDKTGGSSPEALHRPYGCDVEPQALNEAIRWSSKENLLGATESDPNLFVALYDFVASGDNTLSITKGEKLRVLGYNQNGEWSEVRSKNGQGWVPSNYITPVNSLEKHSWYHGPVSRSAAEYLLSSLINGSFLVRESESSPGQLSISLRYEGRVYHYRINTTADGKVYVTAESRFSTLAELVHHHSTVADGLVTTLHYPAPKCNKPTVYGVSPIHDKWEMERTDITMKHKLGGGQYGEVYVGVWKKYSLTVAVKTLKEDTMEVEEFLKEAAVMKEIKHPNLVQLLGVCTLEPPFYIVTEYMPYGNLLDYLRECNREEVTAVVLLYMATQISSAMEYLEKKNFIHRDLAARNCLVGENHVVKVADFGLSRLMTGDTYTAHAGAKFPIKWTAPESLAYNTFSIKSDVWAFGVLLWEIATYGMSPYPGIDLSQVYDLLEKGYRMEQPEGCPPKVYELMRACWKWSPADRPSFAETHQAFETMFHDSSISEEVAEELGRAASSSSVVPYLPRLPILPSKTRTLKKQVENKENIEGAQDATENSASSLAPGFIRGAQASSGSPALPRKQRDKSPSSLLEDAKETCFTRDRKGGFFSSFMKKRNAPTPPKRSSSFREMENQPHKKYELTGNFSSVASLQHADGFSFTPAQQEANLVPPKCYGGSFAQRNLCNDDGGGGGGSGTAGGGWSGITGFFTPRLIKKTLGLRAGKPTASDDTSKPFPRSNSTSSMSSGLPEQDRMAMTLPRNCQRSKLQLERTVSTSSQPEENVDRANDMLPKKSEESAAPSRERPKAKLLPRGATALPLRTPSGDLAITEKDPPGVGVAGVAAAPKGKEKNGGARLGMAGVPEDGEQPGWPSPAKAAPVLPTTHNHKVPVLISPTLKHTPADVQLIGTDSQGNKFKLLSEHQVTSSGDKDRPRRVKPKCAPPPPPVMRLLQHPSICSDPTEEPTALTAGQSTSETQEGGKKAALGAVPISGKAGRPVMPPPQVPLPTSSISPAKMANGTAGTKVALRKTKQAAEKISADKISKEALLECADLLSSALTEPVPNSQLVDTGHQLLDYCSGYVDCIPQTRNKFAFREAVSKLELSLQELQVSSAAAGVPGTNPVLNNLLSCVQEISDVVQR

{"columns": ["structure-smiles-string", "IC50"],
 "data": [
  ["Cc1ccc(NC(=O)c2ccc(CN3CCN(C)CC3)cc2)cc1Nc1nccc(-c2cncc(-c3snnc3C)c2)n1", "> 1000 nM"]
]}

As a next step, examine the compound that follows.
Query: What value of measured IC50 is listed for Cc1ccc(NC(=O)c2ccc(CN3CCN(C)CC3)cc2)cc1Nc1nccc(-c2cncc(-c3cnns3)c2)n1 ?
Response: > 1000 nM

====

test: Human liver microsome stability; format: in vitro ADME; settings: human liver microsomes; read-out: Human liver microsome t1/2
quantity-measured: half-life (min)
Give bare numbers, in min.

Answer for every listed entry: what is its half-life? The entries follow.
1. Cc1ccc(NC(=O)c2ccc(CN3CCN(C)CC3)cc2)cc1Nc1nccc(-c2cncc(-c3ccn(C)n3)c2)n1 [Compound 832]
2. Cc1ccnc(-c2cncc(-c3ccnc(Nc4cc(NC(=O)c5ccc(CN6CCN(C)CC6)cc5)ccc4C)n3)c2)c1 [Compound 830]
3. Cc1ccc(NC(=O)c2ccc(CN3CCN(C)CC3)cc2)cc1Nc1nccc(-c2cncc(-c3nccs3)c2)n1 [Compound 8270]
4. Cc1cc(-c2cncc(-c3ccnc(Nc4cc(NC(=O)c5ccc(CN6CCN(C)CC6)cc5)ccc4C)n3)c2)on1 [Compound 207]
5. Cc1ccc(NC(=O)c2ccc(CN3CCN(C)CC3)cc2)cc1Nc1nccc(-c2cncc(-c3oncc3C)c2)n1 [Compound 809]

Response:
1: 24.5; 2: 19.6; 3: 20.9; 4: 17.5; 5: 21.9

====

assay: Pharmacokinetic parameters in Sprague-Dawley rats; details: rat, in vivo
quantity-measured: Cmax (ng/mL)
Give bare numbers, in ng/mL.

{"columns": ["compound", "Cmax / ng/mL"],
 "data": [
  ["Cc1ccnc(-c2cncc(-c3ccnc(Nc4cc(NC(=O)c5ccc(CN6CCN(C)CC6)cc5)ccc4C)n3)c2)c1 [Compound 830]", 465]
]}

Answer for every listed entry: what is its Cmax? The entries follow.
1. Cc1cc(-c2cncc(-c3ccnc(Nc4cc(NC(=O)c5ccc(CN6CCN(C)CC6)cc5)ccc4C)n3)c2)on1 [Compound 207]
2. Cc1ccc(NC(=O)c2ccc(CN3CCN(C)CC3)cc2)cc1Nc1nccc(-c2cccnc2)n1 [imatinib, reference compound]

Response:
1. 225
2. 241

====

Kindly supply the reported bioavailability values for the records listed here.
experiment: Pharmacokinetic parameters in Sprague-Dawley rats; conditions: rat, in vivo
Numbers only, in %.

Some compounds with known bioavailability results, for comparison:
{"columns": ["structure-smiles-string", "uom", "bioavailability"],
 "data": [
  ["Cc1ccc(NC(=O)c2ccc(CN3CCN(C)CC3)cc2)cc1Nc1nccc(-c2cncc(-c3oncc3C)c2)n1", "%", 24],
  ["Cc1ccc(NC(=O)c2ccc(CN3CCN(C)CC3)cc2)cc1Nc1nccc(-c2cncc(-c3ccn(C)n3)c2)n1", "%", 33],
  ["Cc1ccnc(-c2cncc(-c3ccnc(Nc4cc(NC(=O)c5ccc(CN6CCN(C)CC6)cc5)ccc4C)n3)c2)c1", "%", 47],
  ["Cc1cc(-c2cncc(-c3ccnc(Nc4cc(NC(=O)c5ccc(CN6CCN(C)CC6)cc5)ccc4C)n3)c2)on1", "%", 32]
]}

As a next step, examine the compound that follows.
Query: What value of measured bioavailability is listed for Cc1ccc(NC(=O)c2ccc(CN3CCN(C)CC3)cc2)cc1Nc1nccc(-c2cncc(-c3nccs3)c2)n1 ?
Response: 46

====

assay: Pharmacokinetic parameters in Sprague-Dawley rats; settings: rat, in vivo
Kindly supply the reported half-life values for the records listed here.
Answers are plain numbers, in h.

Some compounds with known half-life results, for comparison:
{"columns": ["compound", "uom", "test-value"],
 "data": [
  ["Cc1ccnc(-c2cncc(-c3ccnc(Nc4cc(NC(=O)c5ccc(CN6CCN(C)CC6)cc5)ccc4C)n3)c2)c1 [Compound 830]", "h", 3.6],
  ["Cc1ccc(NC(=O)c2ccc(CN3CCN(C)CC3)cc2)cc1Nc1nccc(-c2cncc(-c3nccs3)c2)n1 [Compound 8270]", "h", 3.3],
  ["Cc1cc(-c2cncc(-c3ccnc(Nc4cc(NC(=O)c5ccc(CN6CCN(C)CC6)cc5)ccc4C)n3)c2)on1 [Compound 207]", "h", 3.1],
  ["Cc1ccc(NC(=O)c2ccc(CN3CCN(C)CC3)cc2)cc1Nc1nccc(-c2cncc(-c3ccn(C)n3)c2)n1 [Compound 832]", "h", 2.6]
]}

As a next step, examine the compound that follows.
Query: What value of measured half-life is listed for Cc1ccc(NC(=O)c2ccc(CN3CCN(C)CC3)cc2)cc1Nc1nccc(-c2cncc(-c3oncc3C)c2)n1 [Compound 809] ?
Response: 2.2
